Cited source for all entries: ChEMBL document CHEMBL1131671

log10 IC50 values for the molecules below.
Target: Beta-lactamase (Escherichia coli K-12, UniProt P00811)
Sequence (P00811 whole entry): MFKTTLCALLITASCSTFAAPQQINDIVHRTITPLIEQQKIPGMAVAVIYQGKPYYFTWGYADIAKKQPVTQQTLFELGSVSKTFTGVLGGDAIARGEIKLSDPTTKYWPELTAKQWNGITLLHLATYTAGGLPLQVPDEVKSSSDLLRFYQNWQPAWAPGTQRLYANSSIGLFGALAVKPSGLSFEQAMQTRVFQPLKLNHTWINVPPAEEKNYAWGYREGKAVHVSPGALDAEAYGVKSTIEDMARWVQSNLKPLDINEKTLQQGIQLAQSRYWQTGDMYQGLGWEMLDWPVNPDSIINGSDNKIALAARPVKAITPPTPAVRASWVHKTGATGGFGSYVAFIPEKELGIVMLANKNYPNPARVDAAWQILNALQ
Test: Inhibitory activity against AmpC (class C) beta-lactamase
Assay Metric: log10 IC50 (log10 of the value in nM)

> print(dat)
                                   molecule  measured.number
1  CC(C)[C@H](NC[C@H]1OCC[C@H]1SC1=C(C(=O)O)N2C(=O)[C@H]([C@@H](C)O)C2[C@H]1C)C(=O)O (some centres undefined)             1.83
2  C[C@@H](O)[C@H]1C(=O)N2C(C(=O)O)=C(S[C@@H]3CCO[C@@H]3CN)[C@H](C)[C@H]12             2.26
3  C[C@H](O)[C@H]1C(=O)N2[C@@H](C(=O)O)C(C)(C)S(=O)(=O)[C@H]12             3.20
4  C[C@H](O)[C@@H]1C(=O)N2[C@@H](C(=O)O)C(C)(C)S(=O)(=O)[C@H]12             2.08
5  CC1(C)S[C@@H]2[C@H](CO)C(=O)N2[C@H]1C(=O)O             4.82
6  C[C@@H](O)[C@H]1C(=O)N2[C@@H](C(=O)O)C(C)(C)S(=O)(=O)[C@H]12             4.01
7  CC1(C)[C@H](C(=O)O)N2C(=O)[C@H](CO)[C@H]2S1(=O)=O             3.76
8  CC1(C)[C@H](C(=O)O)N2C(=O)[C@@H](CO)[C@H]2S1(=O)=O             3.06
9  CC1(C)S[C@@H]2[C@@H](CO)C(=O)N2[C@H]1C(=O)O             5.34

---

Biological target: Beta-lactamase TEM (Escherichia coli)
Sequence (P62593 whole entry): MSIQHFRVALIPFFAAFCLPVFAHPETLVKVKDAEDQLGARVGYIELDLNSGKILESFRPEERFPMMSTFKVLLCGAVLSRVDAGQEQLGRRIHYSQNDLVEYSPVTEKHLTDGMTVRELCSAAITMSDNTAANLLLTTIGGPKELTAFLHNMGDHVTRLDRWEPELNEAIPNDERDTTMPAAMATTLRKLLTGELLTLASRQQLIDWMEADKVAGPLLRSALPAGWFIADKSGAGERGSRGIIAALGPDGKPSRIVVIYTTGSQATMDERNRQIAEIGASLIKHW
Experiment: Inhibitory activity against TEM-1 (class A) beta-lactamase
pIC50: −log10 of the molar value.
Output 1.0 for pIC50 not less than 5; output 0.0 otherwise.

> print(dat)
                                   compound  category
1  CC1(C)S[C@@H]2[C@@H](CO)C(=O)N2[C@H]1C(=O)O       0.0
2  CC1(C)S[C@@H]2[C@H](CO)C(=O)N2[C@H]1C(=O)O       0.0
3  C[C@@H](O)[C@H]1C(=O)N2[C@@H](C(=O)O)C(C)(C)S(=O)(=O)[C@H]12       0.0
4  CC(C)[C@H](NC[C@H]1OCC[C@H]1SC1=C(C(=O)O)N2C(=O)[C@H]([C@@H](C)O)C2[C@H]1C)C(=O)O (some centres not stated)       1.0
5  C[C@H](O)[C@H]1C(=O)N2[C@@H](C(=O)O)C(C)(C)S(=O)(=O)[C@H]12       0.0
6  C[C@H](O)[C@@H]1C(=O)N2[C@@H](C(=O)O)C(C)(C)S(=O)(=O)[C@H]12       0.0
7  C[C@@H](O)[C@H]1C(=O)N2C(C(=O)O)=C(S[C@@H]3CCO[C@@H]3CN)[C@H](C)[C@H]12       1.0
